- TESTED_TARGET: ASK1 kinase (Homo sapiens (Human))
- Sequence (Q99683 whole entry): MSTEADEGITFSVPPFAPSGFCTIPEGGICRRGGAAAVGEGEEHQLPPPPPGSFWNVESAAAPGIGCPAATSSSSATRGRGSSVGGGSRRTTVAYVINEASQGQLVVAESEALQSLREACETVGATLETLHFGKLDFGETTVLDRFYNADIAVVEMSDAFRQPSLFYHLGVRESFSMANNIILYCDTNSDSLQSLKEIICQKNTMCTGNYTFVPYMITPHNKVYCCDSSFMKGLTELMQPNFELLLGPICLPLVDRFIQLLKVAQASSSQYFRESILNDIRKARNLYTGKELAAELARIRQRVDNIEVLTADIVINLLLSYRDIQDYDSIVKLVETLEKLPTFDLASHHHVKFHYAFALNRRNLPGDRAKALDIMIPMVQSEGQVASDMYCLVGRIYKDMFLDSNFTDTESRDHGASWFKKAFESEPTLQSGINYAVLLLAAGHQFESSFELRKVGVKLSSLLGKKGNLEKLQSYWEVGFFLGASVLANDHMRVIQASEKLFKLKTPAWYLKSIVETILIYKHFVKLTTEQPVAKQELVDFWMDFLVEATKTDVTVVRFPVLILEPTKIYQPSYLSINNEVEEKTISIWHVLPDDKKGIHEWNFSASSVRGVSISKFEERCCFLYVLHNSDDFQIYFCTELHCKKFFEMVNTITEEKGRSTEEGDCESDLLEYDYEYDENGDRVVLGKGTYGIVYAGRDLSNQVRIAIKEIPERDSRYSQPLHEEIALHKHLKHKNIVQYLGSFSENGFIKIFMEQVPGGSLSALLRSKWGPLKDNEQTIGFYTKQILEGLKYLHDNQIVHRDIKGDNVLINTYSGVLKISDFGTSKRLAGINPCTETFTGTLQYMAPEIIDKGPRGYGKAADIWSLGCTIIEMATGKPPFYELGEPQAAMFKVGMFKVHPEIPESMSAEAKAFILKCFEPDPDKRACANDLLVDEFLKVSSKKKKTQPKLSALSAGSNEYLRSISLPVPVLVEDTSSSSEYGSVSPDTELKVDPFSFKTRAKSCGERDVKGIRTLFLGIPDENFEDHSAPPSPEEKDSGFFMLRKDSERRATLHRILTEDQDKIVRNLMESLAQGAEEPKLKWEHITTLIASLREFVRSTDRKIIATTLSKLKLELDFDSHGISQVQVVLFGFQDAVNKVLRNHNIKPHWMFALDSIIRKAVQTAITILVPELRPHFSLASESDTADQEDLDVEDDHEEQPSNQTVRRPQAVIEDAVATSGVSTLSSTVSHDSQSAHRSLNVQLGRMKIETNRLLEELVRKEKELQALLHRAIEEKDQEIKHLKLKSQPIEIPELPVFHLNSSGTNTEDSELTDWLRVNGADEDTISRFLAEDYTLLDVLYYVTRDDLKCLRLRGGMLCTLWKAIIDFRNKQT
Measured IC50 accompanies every entry in the list below.

C[C@H](CO)n1nnnc1-c1cccc(N2Cc3ccc(-n4cnc(C5CC5)c4)cc3C2=O)n1 | 10 to 100 nM
CC(C)n1nnnc1-c1cccc(N2Cc3ccc(-c4ccc(C5CC5)nc4)cc3C2=O)n1 | 10 to 100 nM

Here is another compound to look at.
Entry CC(=O)OC[C@@H](C)n1nnnc1-c1cccc(N2Cc3ccc(OC(C)C)cc3C2=O)n1 , IC50 reported as > 1000 nM
